Biological target: Mannose-6-phosphate isomerase (Homo sapiens)
Experiment: MPI inhibition at elevated mannose 6-phosphate – biochemical, fluorescence intensity, high mannose 6-phosphate, primary screen (AID 1220)
Conditions: recombinant PMI enzyme, coupled fluorescence intensity; at 20 µM; active compounds read high
Among all 190,000 compounds or so, about 1,300 (0.68%) were called active. The sample as a whole holds a higher share of actives than the screen did.
Use 10% as the dividing line for inhibition, with the line itself on the Satisfied side and lower values as Not satisfied.

>>> discrete_label("O=c1cc(N2CCOCC2)c2ccccc2o1")
"Not satisfied"
>>> discrete_label("CN(C)N1C(N)=C(C#N)C(c2cccs2)C2=C1CCCC2=O (centres undefined)")
"Satisfied"
>>> discrete_label("COc1ccc(OC)c(C2CC(=O)N3CN(c4cccc(Cl)c4)CSC3=C2C#N)c1 (centres undefined)")
"Satisfied"
>>> discrete_label("O=C(/C=C/c1ccccc1)NC1CCS(=O)(=O)C1 (centres undefined)")
"Not satisfied"
>>> discrete_label("CCOC(=O)c1cnc2ccc(OCC)cc2c1NCc1ccccc1")
"Satisfied"
>>> discrete_label("COc1cc(OC)c(C2CC(=O)N3CN(c4ccccc4)CSC3=C2C#N)cc1OC (centres undefined)")
"Satisfied"
>>> discrete_label("CN(C(=O)c1cccnc1)c1nnc(-c2ccccn2)s1")
"Not satisfied"
>>> discrete_label("CC1=CC(C)(C)N=C(NC#N)N1")
"Not satisfied"
>>> discrete_label("COCCNS(=O)(=O)c1cc(OC)ccc1OC")
"Not satisfied"
>>> discrete_label("CCOC(=O)Cn1c(=O)oc2cc(S(=O)(=O)Nc3ccc(F)cc3)ccc21")
"Not satisfied"
>>> discrete_label("C/C(=N\\NC(=O)CNc1cccc2ccccc12)c1ccc(Br)s1")
"Satisfied"
>>> discrete_label("N#C/C(=C1/CCCCCN1)c1nnc2n1CCCCC2")
"Not satisfied"
>>> discrete_label("Cc1ccc(Nc2ncnc3sc(C)c(C)c23)cc1")
"Satisfied"
>>> discrete_label("C/C(=N\\NC(=O)CNc1cccc(C)c1)c1ccc(Br)s1")
"Satisfied"
>>> discrete_label("c1ccc2c3c(cc(N4CCOCC4)c2c1)OC1(N2CCOCC2)CCCCC1O3 (centres undefined)")
"Satisfied"
>>> discrete_label("COc1ccc(Cn2c(N)c(C#N)c3nc4ccccc4nc32)cc1")
"Satisfied"
>>> discrete_label("O=C(/C=C/c1cccs1)NC1CCS(=O)(=O)C1 (centres undefined)")
"Satisfied"
>>> discrete_label("COc1ccc(Br)cc1C1CC(=O)N2CN(Cc3ccccc3)CSC2=C1C#N (centres undefined)")
"Satisfied"
>>> discrete_label("COC(=O)c1c(O)c2c([nH]c1=O)CCCC2")
"Not satisfied"
>>> discrete_label("Cn1ccnc1C(O)c1ccccc1 (centres undefined)")
"Satisfied"
>>> discrete_label("C/C(CCc1ccco1)=N/NC(=O)CCC(=O)Nc1ccc(Br)cc1")
"Not satisfied"
>>> discrete_label("CC(=O)N(C)C1=C(O)c2ccccc2C(=O)C1=O")
"Satisfied"
>>> discrete_label("Cc1c(C(=O)Nc2ccccc2)sc2nc[nH]c(=O)c12")
"Not satisfied"
>>> discrete_label("CC(=O)N(C)C1=C(N2CCOCC2)C(=O)c2ccccc2C1=O")
"Satisfied"
>>> discrete_label("CN(C)N1C(N)=C(C#N)C(c2ccsc2)C2=C1CC(C)(C)CC2=O (centres undefined)")
"Satisfied"
>>> discrete_label("COc1ccc(OC)c(C2CC(=O)N3CN(c4ccccc4)CSC3=C2C#N)c1 (centres undefined)")
"Not satisfied"
>>> discrete_label("O=C(Cn1nc(C(F)(F)F)c2c1CCC2)NCc1ccc(Cl)cc1")
"Not satisfied"
>>> discrete_label("COc1ccc(N2CSC3=C(C#N)C(c4cc(OC)ccc4OC)CC(=O)N3C2)c(OC)c1 (centres undefined)")
"Satisfied"
>>> discrete_label("CSc1ccc(C2C(C#N)=C(N)N(c3ccccc3)C3=C2C(=O)CCC3)cc1 (centres undefined)")
"Satisfied"
>>> discrete_label("COc1ccc2nc(NC(=O)Nc3ccccc3)sc2c1")
"Satisfied"
>>> discrete_label("O=C(/C=C/c1cccs1)NC1CC1")
"Not satisfied"
>>> discrete_label("COc1ccccc1NCC(=O)N/N=C(\\C)c1ccc(Br)s1")
"Satisfied"
>>> discrete_label("CCCC(=O)Nc1nc2ccc(OC)cc2s1")
"Not satisfied"
>>> discrete_label("Cc1cc(NC(=O)CSc2nc(-c3ccccc3)nc3c2c(=O)n(C)c(=O)n3C)no1")
"Not satisfied"
>>> discrete_label("COc1ccc2nc(NC(=O)Nc3cccc4ccccc34)sc2c1")
"Satisfied"
>>> discrete_label("C/C(=C\\C(=O)N1CCc2ccccc21)C(=O)O")
"Satisfied"
>>> discrete_label("N#C/C(=C1\\C(=O)Nc2c(Cl)cc(Cl)cc21)c1nnc2n1CCCCC2")
"Satisfied"
>>> discrete_label("COc1cc(OC)c(C2CC(=O)N3CN(c4ccccc4C)CSC3=C2C#N)cc1OC (centres undefined)")
"Not satisfied"
>>> discrete_label("N#C/C(=N\\Nc1cc(Cl)cc(Cl)c1)c1nnc2n1CCCCC2")
"Satisfied"
>>> discrete_label("O=C(Cn1cnc2ccccc2c1=O)NCc1cccs1")
"Satisfied"
>>> discrete_label("CCc1ccc(C2C(C#N)=C(N)OC3=C2C(=O)CCC3)s1 (centres undefined)")
"Not satisfied"
>>> discrete_label("Oc1ccc2c(c1)C1CCCC1(N1CCOCC1)O2 (centres undefined)")
"Satisfied"
